Reference source: ChEMBL document CHEMBL1150787

System: HBV genotype D
assayOverview: Antiviral activity against HBV genotype D with reverse transcriptase L80I mutation in human Huh7 cells assessed as inhibition of viral replication after 5 days
Format: functional, organism-based
conditionContext: Hepatitis B virus, Huh-7, 120 h
experimentalReadout: EC50 (nM)
Give bare numbers, in nM.

Input `Nc1ccn([C@@H]2CS[C@H](CO)O2)c(=O)n1` . Output EC50: 30
